# Tested on: E. coli 31–97
# TEST_NAME: Interaction study, checkerboard titration
# Format: cell-based, Escherichia coli
# RECORDED_CONDITIONS: antibiotic in combination with MG II (magainin II)
FIC index reference
// print number alone

Here's what some known entries look like.
SMILES_CODE	SYSTEM	FIC index
CC[C@H]1OC(=O)[C@H](C)[C@@H](O[C@H]2C[C@@](C)(OC)[C@@H](O)[C@H](C)O2)[C@H](C)[C@@H](O[C@@H]2O[C@H](C)C[C@H](N(C)C)[C@H]2O)[C@](C)(OC)C[C@@H](C)C(=O)[C@H](C)[C@@H](O)[C@]1(C)O	E. coli 31–97	1.500
CCN1CCN(C(=O)N[C@@H](C(=O)N[C@@H]2C(=O)N3[C@@H]2SC(C)(C)[C@@H]3C(=O)O)c2ccccc2)C(=O)C1=O	E. coli 31–97	0.312
CO/N=C(\C(=O)N[C@@H]1C(=O)N2C(C(=O)O)=C(CSc3nc(=O)c(=O)[nH]n3C)CS[C@H]12)c1csc(N)n1	E. coli 31–97	0.312
CC(C)(O/N=C(\C(=O)N[C@@H]1C(=O)N2C(C(=O)[O-])=C(C[n+]3ccccc3)CS[C@H]12)c1csc(N)n1)C(=O)O	E. coli 31–97	0.187
C[C@@H](O)[C@H]1C(=O)N2C(C(=O)O)=C(S[C@@H]3CN[C@H](C(=O)N(C)C)C3)[C@H](C)[C@H]12	E. coli 31–97	0.375

Attention now shifts to the item below.
Just so you know, measured FIC index for `C[C@H]1c2cccc(O)c2C(=O)C2=C(O)[C@]3(O)C(=O)C(C(N)=O)=C(O)[C@@H](N(C)C)[C@@H]3[C@@H](O)[C@@H]21` came out at 1.250
